assay: NCI Yeast Anticancer Drug Screen. Data for the mlh1 rad18 strain (AID 175); settings: S. cerevisiae mlh1 rad18 strain growth inhibition; at 5.0 µM (retest, dose inferred, filed as 0.5)
About 79,000 compounds went through this panel and 15% of them were active in at least one assay; those are over-represented in the sample as a whole. Calls of active or inactive are those of the source. No stated cut-off is given here; in the data, active means growth inhibition above about 70%; inactive means the rest.
Your response should consist of one outcome taken from active, inactive

Please state the recorded outcome for this compound: O=C1NN(C2=NNC3(C(=O)N2)c2ccccc2-c2ccccc23)C(c2ccccc2)=N/C1=C/c1ccc(Cl)cc1
inactive

Now consider COc1cc(C2c3cc4c(cc3[C@@H](OCCN)[C@H]3COC(=O)C23)OCO4)cc(OC)c1O (stereo partly drawn) .
inactive

Now consider Cc1nnc2nc3c(nn12)c1ccccc1n3C .
inactive

----------
test: NCI Yeast Anticancer Drug Screen. Data for the cln2 rad14 strain (AID 165);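 further: 0% = growth equal to vehicle treated cultures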; conditions: S. cerevisiae cln2 rad14 strain, at 50.0 µM (retest, dose inferred, filed as 5.0), stronger effect = higher value
The panel holds about 79,000 compounds, 15% with a hit somewhere; the sample as a whole holds those more often.
growth inhibition for assorted molecules
# unit: % | format: bare number

// below: answered molecules
Name the reported growth inhibition value associated with the molecule CCOCCNc1ncnc2c1cnn2C
-1

Now consider O=Nc1c(-c2c[nH]c3ccccc23)[nH]c2ccccc12 .
33

---
Name the reported growth inhibition value associated with the molecule O=C1CSC(c2ccc([N+](=O)[O-])cc2)N1c1ccc(-c2ccc(-n3c(-c4ccccc4)nc4ccccc4c3=O)cc2)cc1 (stereo not given)
75

Now consider O=C(/C=C/c1ccccc1)CCN1CCC2CCC(C2)C1 (stereo not given) .
58

Now consider COc1c2c3c(ccnc3c3ccccc13)C(=O)N2C .
52

Now consider Clc1ccc(CN2COc3c(ccc4cccnc34)C2)cc1 .
97

----------
test: NCI Yeast Anticancer Drug Screen. Data for the bub3 strain (AID 167); conditions: S. cerevisiae bub3 mutant strain, at 50.0 µM, stronger effect = higher value
About 79,000 compounds went through this panel and 15% of them were active in at least one assay; those are over-represented in the sample as a whole.
growth inhibition for assorted compounds
# unit: % | format: bare number

// below: answered compounds
Name the reported growth inhibition value associated with the compound COc1cc(C)cc(C(=O)OCc2ccccc2)c1C1=C(Cl)C(=O)C(Cl)=CC1=O
80.5

Now consider COc1cc(NCC(C)(O)CN2CCC(C)CC2C)c2ncccc2c1 (centres undefined) .
80.7

Now consider COC(=O)C(=O)C(C(=O)Nc1cccc(C)c1C)C1Sc2ccccc2NC1=O (centres undefined) .
81.7

---
Name the reported growth inhibition value associated with the compound CC(C)NC(=O)CN1C(=O)NC(C)(c2ccccc2)C1=O (centres undefined)
79.2

----------
assay: NCI Yeast Anticancer Drug Screen. Data for the mec2-1 strain (AID 157); conditions: S. cerevisiae mec2-1 strain, at 50.0 µM, stronger effect = higher value
Compounds without any hit were thinned out: in the full panel of roughly 79,000, 15% have a hit.
# binarize growth inhibition: threshold 50% inclusive, high side Criterion met, low side Criterion not met

// below: answered molecules
Given C/C(=N\NC(=O)c1ccc([N+](=O)[O-])cc1)c1ccccc1 , state whether its growth inhibition is at least 50%.
Criterion not met

Now consider O=C(Nc1ccc(C2=NCCN2)cc1)c1ccc(C(=O)Nc2ccc(C3=NCCN3)cc2)c(Cl)c1 .
Criterion met

Now consider O=S(=O)(Nc1ccc(Cl)cc1)c1ccccc1 .
Criterion not met

Now consider F[Si](c1ccccc1)(c1ccccc1)c1ccccc1 .
Criterion not met

Now consider COc1ccc2c(c1)nc1ccc(Cl)cc1[n+]2C .
Criterion met

---
Given O=C(Oc1cccc2cccnc12)c1cccnc1 , state whether its growth inhibition is at least 50%.
Criterion met

Now consider O=C(C(=Cn1c(=S)[nH]c2ccc([N+](=O)[O-])cc21)C(=O)c1ccccc1)c1ccccc1 .
Criterion met

Now consider CC(C)(C[NH-])C[NH-].[Cl][Pt+2]([Cl])([Cl])[Cl] .
Criterion met

Now consider CCCCCCCCCCCCCCCC[N+](C)(C)CCl .
Criterion met

Now consider O=C1CCC(O)N1CN1C(=O)CCC1O (stereo unspecified) .
Criterion not met

Now consider CCC(=O)C(CC)(c1ccc(OC(C)=O)cc1)c1ccc(OC(C)=O)cc1 .
Criterion not met

Now consider CCCCCCCCCCCCCCCCCCOP(=O)([O-])OCC[N+](C)(C)C .
Criterion met

Now consider CCN(CC)CCNc1c(OC)cc(C)c2sc3ccccc3c(=O)c12 .
Criterion not met

----------
growth inhibition for assorted molecules
experiment: NCI Yeast Anticancer Drug Screen. Data for the mlh1 rad18 strain (AID 175); conditions: S. cerevisiae mlh1 rad18 strain growth inhibition; at 50.0 µM (retest, dose inferred, filed as 5.0); stronger effect = higher value
About 79,000 compounds went through this panel and 15% of them were active in at least one assay; those are over-represented in the sample as a whole.
# unit: % | format: bare number

// below: answered molecules
Name the reported growth inhibition value associated with the molecule CCCOc1cc(C(=O)OCCN(CC)CC)cc(OCCC)c1OCCC
41

Now consider CC(=O)Nc1cccc(Oc2ccc(Br)cc2[N+](=O)[O-])c1 .
89

Consider the additional molecule presented here.
Name the reported growth inhibition value associated with the molecule CNCCN[C@@H]1c2cc3c(cc2[C@@H](c2cc(OC)c(O)c(OC)c2)[C@H]2C(=O)OC[C@@H]21)OCO3
89

----------
assay: NCI Yeast Anticancer Drug Screen. Data for the sgs1 mgt1 strain (AID 161);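 further: 0% = growth of cultures given vehicle only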; conditions: S. cerevisiae sgs1 mgt1 strain, at 50.0 µM (retest, dose inferred, filed as 5.0), stronger effect = higher value
The panel holds about 79,000 compounds, 15% with a hit somewhere; the sample as a whole holds those more often. Where a SMILES comes first, the peptide text is derived from it. The star is where a group is joined. Trt = c1ccc(C(c2ccccc2)(c2ccccc2)*)cc1; OtBu = CC(C)(C)O*
# binarize growth inhibition: threshold 90% inclusive, high side true (1), low side false (0)

// below: answered molecules
Given CC(C)(C)OC(=O)CNC(=O)C(Cc1ccccc1)NC(=O)C(N)CSC(c1ccccc1)(c1ccccc1)c1ccccc1 (stereo not drawn) (H-Cys(Trt)-Phe-Gly-OtBu; configuration not given here) , state whether its growth inhibition is at least 90%.
false (0)

Now consider Oc1cc(F)cc2cccnc12 .
true (1)

Now consider CC(NC(=O)OCc1ccccc1)C(=O)NNc1ccccc1Cl (centres undefined) .
true (1)

---
Given O=C(Nc1ccc(F)c(Cl)c1)Oc1ccc(Br)cc1Br , state whether its growth inhibition is at least 90%.
false (0)

Now consider C=CC1(C)CCC2C(=CCC3C(C)(C(=O)O)CCCC23C)C1 (centres undefined) (tested in a mixture with another compound) .
false (0)

Now consider O=c1c(Cl)c(Cl)c(=O)c2sc3cc(Cl)ccc3[nH]c1=2 .
false (0)

Now consider CCCCCCCCCCSC(=NCC)NCC .
true (1)

----------
assay: NCI Yeast Anticancer Drug Screen. Data for the rad50 strain (AID 155);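 further: 0% = growth of vehicle-only cultures of the same strain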; conditions: S. cerevisiae rad50 strain growth inhibition; at 50.0 µM (retest, dose inferred, filed as 5.0)
The panel holds about 79,000 compounds, 15% with a hit somewhere; the sample as a whole holds those more often. The source made the active and inactive calls. No stated cut-off is given here; in the data, active means growth inhibition above about 70%; inactive means the rest.
Your response should consist of one outcome taken from Y (active), N (inactive)

Please state the recorded outcome for this compound: COc1cc(C2c3cc4c(cc3[C@@H](OCCN)[C@H]3COC(=O)C23)OCO4)cc(OC)c1O (some centres undefined)
Y

Now consider Oc1ccc(-c2ccccc2)cc1Cl .
Y

Now consider ClCC1CSC2(CCCCC2)O1 (centres undefined) .
N

Now consider Cc1ccc(S(=O)(=O)CC2COC(CS(=O)(=O)c3ccc(C)cc3)CO2)cc1 (centres undefined) .
N

---
Please state the recorded outcome for this compound: COS(=O)c1cc(Cl)cc(Cl)c1OC(=O)CSSCC(=O)Oc1c(Cl)cc(Cl)cc1S(=O)OC (centres undefined)
Y

Now consider CCCCCCCCCCCCCC(=O)CC(=O)c1c(O)cccc1O .
N

Now consider O=C1CN(CCN2CCOCC2)CC(=O)N2CCCCN12 .
N

Now consider COc1ccc2c(c1)CCCN2CCCCCCCCCCN1CCCCC1 .
N

Now consider COc1ccccc1NC(=O)C1=C(C)NC(C)=C(C(=O)Nc2ccccc2OC)C1c1ccccc1[N+](=O)[O-] .
N

Now consider COc1ccc2c(c1)CC/C(=C\c1ccc(OCCN(C)C)cc1)C2=O .
N

----------
assay: NCI Yeast Anticancer Drug Screen. Data for the mlh1 rad18 strain (AID 175); settings: S. cerevisiae mlh1 rad18 strain growth inhibition; at 50.0 µM; stronger effect = higher value
This is part of a sample that, as a whole, favours compounds with a hit. Of some 79,000 tested, about 15% had one in any assay.
growth inhibition for assorted molecules
# unit: % | format: bare number

// below: answered molecules
Name the reported growth inhibition value associated with the molecule ICCCCSc1cc(-c2ccccc2)[o+]c2ccccc12
88.8

Now consider CN(C)CC1CCCCCC(Br)C1=O (stereo not drawn) .
91

Now consider CC(=O)c1ccc2sc3ccccc3c2c1 .
88.3

Now consider Cc1n[n+]([O-])c(C)cc1[N+](=O)[O-] .
92.2

Now consider CC(NNC(=S)NCc1ccccc1)c1cc2ccccc2cn1 (stereo not drawn) .
89.7

---
Name the reported growth inhibition value associated with the molecule COc1cccc2c1[n+]([O-])c1cccc(O)c1[n+]2[O-]
91.7

Now consider N#CSC#CCCC#CSC#N .
88.9

Now consider CCOC(=O)C(=CCC1NCCc2c1[nH]c1ccccc21)C(=O)OCC (stereo not drawn) .
91.6
